Measured ADCC cytotoxic activity (51Cr release) on HT-29 of individual entries
Target: T1, CAPRIN-1 protein expressed on the membrane surface of human cancer cells (human, UniProt Q14444 2-709)
T1 sequence (looked up): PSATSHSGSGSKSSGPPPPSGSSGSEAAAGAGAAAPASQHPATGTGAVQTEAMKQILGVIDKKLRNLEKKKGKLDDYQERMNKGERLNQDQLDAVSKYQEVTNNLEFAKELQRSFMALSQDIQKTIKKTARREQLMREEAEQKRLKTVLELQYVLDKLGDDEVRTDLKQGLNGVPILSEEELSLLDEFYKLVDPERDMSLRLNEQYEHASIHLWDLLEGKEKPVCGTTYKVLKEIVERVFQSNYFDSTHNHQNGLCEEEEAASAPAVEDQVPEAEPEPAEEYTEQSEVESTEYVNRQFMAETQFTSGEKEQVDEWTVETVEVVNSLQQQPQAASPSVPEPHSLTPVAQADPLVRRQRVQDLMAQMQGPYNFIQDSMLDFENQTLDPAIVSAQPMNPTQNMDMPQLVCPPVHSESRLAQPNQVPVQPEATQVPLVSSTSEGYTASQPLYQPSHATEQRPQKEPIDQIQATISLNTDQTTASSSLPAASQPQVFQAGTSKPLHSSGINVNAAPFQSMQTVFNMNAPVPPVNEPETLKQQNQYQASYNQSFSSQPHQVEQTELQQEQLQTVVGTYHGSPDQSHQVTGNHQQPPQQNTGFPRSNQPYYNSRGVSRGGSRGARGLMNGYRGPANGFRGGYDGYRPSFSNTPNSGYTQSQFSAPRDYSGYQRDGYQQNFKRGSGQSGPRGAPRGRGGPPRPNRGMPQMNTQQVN
Assay: cell-based or functional assay

Below: 3 binders and their reported ADCC cytotoxic activity (51Cr release) on HT-29.
- humanized antibody #9 (antibody, V domains shown) VH: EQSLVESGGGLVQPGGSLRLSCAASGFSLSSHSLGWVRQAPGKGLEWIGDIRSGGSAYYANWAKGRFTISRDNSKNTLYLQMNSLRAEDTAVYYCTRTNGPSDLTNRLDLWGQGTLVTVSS VL: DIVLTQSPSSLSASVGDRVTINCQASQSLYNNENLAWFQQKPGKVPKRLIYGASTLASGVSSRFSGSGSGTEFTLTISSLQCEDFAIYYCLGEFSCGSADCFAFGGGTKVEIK: ≥ 35%
- humanized antibody #1 (antibody, V domains shown) VH: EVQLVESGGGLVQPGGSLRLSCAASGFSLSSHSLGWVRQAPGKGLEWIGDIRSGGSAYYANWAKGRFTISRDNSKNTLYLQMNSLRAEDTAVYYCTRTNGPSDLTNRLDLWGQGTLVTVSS VL: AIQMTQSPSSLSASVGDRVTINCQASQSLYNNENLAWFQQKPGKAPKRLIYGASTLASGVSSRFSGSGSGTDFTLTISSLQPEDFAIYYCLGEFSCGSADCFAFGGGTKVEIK: ≥ 35%
- humanized antibody #8 (antibody, V domains shown) VH: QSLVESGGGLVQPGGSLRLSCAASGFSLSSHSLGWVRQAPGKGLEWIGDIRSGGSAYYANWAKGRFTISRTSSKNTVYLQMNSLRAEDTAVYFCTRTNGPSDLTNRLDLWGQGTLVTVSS VL: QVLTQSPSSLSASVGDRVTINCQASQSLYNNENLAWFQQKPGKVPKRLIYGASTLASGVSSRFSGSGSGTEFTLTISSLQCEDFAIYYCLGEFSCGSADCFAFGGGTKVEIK: ≥ 35%

The reported value for humanized antibody #6 (antibody, V domains shown) VH: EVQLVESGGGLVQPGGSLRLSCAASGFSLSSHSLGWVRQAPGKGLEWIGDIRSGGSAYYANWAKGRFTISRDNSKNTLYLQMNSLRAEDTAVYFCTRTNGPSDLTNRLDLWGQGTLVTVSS VL: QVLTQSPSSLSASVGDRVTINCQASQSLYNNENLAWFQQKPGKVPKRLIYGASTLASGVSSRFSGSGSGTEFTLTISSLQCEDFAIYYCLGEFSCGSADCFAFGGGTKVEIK in terms of ADCC cytotoxic activity (51Cr release) on HT-29 is ≥ 43%

Documented ADCC cytotoxic activity (51Cr release) on HT-29 of humanized antibody #5 (antibody, V domains shown) VH: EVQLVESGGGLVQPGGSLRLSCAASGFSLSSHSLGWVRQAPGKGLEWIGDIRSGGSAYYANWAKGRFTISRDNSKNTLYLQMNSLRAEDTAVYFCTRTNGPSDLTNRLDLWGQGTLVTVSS VL: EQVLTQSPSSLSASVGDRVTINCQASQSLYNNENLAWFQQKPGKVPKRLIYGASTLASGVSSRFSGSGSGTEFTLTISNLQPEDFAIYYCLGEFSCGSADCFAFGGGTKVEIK : ≥ 40%

The binder listed as humanized antibody #4 (antibody, V domains shown) VH: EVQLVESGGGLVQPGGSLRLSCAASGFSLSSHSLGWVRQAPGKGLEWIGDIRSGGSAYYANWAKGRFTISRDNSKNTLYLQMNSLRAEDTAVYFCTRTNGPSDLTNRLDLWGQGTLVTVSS VL: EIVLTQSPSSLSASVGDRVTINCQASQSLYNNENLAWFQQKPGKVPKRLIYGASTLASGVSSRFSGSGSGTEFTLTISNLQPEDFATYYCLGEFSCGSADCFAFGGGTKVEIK has a reported ADCC cytotoxic activity (51Cr release) on HT-29 of ≥ 40%

Recorded ADCC cytotoxic activity (51Cr release) on HT-29 (binder humanized antibody #7 (antibody, V domains shown) VH: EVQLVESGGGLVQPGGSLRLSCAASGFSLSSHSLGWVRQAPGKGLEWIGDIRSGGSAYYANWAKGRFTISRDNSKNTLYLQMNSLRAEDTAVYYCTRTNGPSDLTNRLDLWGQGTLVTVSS VL: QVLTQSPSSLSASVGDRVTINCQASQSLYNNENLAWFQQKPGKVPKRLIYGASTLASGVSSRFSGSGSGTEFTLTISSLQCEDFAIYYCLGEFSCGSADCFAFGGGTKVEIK ): ≥ 43%

Form: binder = humanized antibody #0 (antibody, V domains shown) VH: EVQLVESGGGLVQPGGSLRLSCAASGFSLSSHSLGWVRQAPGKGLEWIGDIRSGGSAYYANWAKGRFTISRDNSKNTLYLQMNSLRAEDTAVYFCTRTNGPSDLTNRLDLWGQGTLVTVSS VL: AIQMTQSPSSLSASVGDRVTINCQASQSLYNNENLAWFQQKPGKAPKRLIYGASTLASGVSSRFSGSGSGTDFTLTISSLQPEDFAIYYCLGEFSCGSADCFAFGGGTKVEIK ; ADCC cytotoxic activity (51Cr release) on HT-29 = ≥ 35%

Record humanized antibody #3 (antibody, V domains shown) VH: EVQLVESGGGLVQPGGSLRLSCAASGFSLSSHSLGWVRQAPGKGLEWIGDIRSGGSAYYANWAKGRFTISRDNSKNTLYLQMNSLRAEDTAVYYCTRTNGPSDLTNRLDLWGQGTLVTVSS VL: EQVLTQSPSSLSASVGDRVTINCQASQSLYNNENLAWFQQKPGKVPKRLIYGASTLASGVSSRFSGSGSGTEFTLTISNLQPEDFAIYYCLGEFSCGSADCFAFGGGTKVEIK , field ADCC cytotoxic activity (51Cr release) on HT-29: ≥ 40%

The recorded ADCC cytotoxic activity (51Cr release) on HT-29 for human-rabbit chimeric anti-CAPRIN-1 antibody (antibody, V domains shown) VH: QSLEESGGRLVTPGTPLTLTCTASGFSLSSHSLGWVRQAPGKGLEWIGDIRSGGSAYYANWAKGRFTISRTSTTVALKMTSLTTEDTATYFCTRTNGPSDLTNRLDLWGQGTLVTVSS VL: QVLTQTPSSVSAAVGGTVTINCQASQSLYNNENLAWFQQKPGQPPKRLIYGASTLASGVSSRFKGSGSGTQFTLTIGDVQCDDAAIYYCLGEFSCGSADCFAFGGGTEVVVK is ≥ 35%

ADCC cytotoxic activity (51Cr release) on HT-29 reported for this binder humanized antibody #2 (antibody, V domains shown) VH: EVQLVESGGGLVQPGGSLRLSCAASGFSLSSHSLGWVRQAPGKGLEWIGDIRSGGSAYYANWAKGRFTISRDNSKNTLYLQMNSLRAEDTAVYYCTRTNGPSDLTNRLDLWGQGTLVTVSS VL: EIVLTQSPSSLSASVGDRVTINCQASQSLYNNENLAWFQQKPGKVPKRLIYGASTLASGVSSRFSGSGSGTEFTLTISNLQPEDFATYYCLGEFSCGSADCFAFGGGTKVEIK : ≥ 40%
